TEST SYSTEM: UniProt:P0DTD1
EXPERIMENT SUMMARY: Binding affinity to SARS-CoV-2 3CL protease at 1.875 to 50 uM in presence of wallichins D by SPR assay
PROPERTY LABEL: Kd (µM)
# number only, unit µM dropped from output

Kd value, target or system UniProt:P0DTD1, for C=C1CC[C@H]2[C@@](C)(CCC[C@]2(C)C(=O)O)[C@@H]1C/C=C(\C)[C@@H]1CCc2c(O)c(CC3C(=O)C(C(C)=O)=C(O)C(C)(C)C3O)c(O)c(C(=O)CCC)c2O1 (stereo partly specified) : 12

---

TEST SYSTEM: UniProtKB P0DTC2
EXPERIMENT SUMMARY: Binding affinity to SARS-CoV-2 Spike glycoprotein receptor-binding domain at 1.875 to 50 uM in presence of wallichins D by SPR assay
PROPERTY LABEL: pKd
On this scale, pKd is minus log10 of a concentration expressed in M (mol/L).

The molecule C=C1CC[C@H]2[C@@](C)(CCC[C@]2(C)C(=O)O)[C@@H]1C/C=C(\C)[C@@H]1CCc2c(O)c(CC3C(=O)C(C(C)=O)=C(O)C(C)(C)C3O)c(O)c(C(=O)CCC)c2O1 (stereo partly specified) , tested on UniProtKB P0DTC2, showed pKd of 4.19
